biological target: UniProt P00734; assay: Determination of inhibition constants for thrombin; type: biochemical
// reported Ki for each item listed

{"MOL": "N=C(N)c1ccc(CNC(=O)[C@H](Cc2cccc(CN)c2)NC(=O)[C@@H](CN)NS(=O)(=O)Cc2ccccc2)cc1", "Ki": "> 1000 nM"}
{"MOL": "CC(C)(C)OC(=O)NCCCC[C@@H](NS(=O)(=O)Cc1ccc(C(=O)O)cc1)C(=O)N[C@@H](Cc1cccc(CN)c1)C(=O)NCc1ccc(C(=N)N)cc1", "Ki": "> 1000 nM"}
{"MOL": "N=C(N)c1ccc(CNC(=O)[C@H](Cc2c[nH]cn2)NC(=O)[C@@H](CCCc2ccccc2)NS(=O)(=O)Cc2ccccc2)cc1", "Ki": "< 100 nM"}
{"MOL": "CC(C)(C)OC(=O)NCCCC[C@@H](NS(=O)(=O)Cc1ccccc1)C(=O)N[C@@H](CCc1ccncc1)C(=O)NCc1ccc(C(=N)N)cc1", "Ki": "< 1000 nM"}
{"MOL": "N=C(N)c1ccc(CNC(=O)[C@H](Cc2cccc(CN)c2)NC(=O)[C@@H](Cc2ccc(-c3ccccc3)cc2)NS(=O)(=O)Cc2ccccc2)cc1", "Ki": "< 1000 nM"}

[ask] Please give the measured Ki for this compound: COc1ccc(CCC[C@@H](NS(=O)(=O)Cc2ccccc2)C(=O)N[C@@H](Cc2cccc(CN)c2)C(=O)NCc2ccc(C(=N)N)cc2)cc1
[reply] < 1000 nM

[ask] Please give the measured Ki for this compound: N=C(N)c1ccc(CNC(=O)[C@H](Cc2cccc(CN)c2)NC(=O)[C@@H](CCCc2ccccc2)NS(=O)(=O)Cc2cccc(C(=O)O)c2)cc1
[reply] > 1000 nM

====

target: plasmin (Homo sapiens, UniProt P00747); assay: Determination of inhibition constants for plasmin; format: biochemical; set-up: purchased Calbiochem; conditions: 25° C., substrate Chromozym PL, pH 8.0; read-out: Plasmin [Ki]
Sequence (P00747 581-810 limits assumed): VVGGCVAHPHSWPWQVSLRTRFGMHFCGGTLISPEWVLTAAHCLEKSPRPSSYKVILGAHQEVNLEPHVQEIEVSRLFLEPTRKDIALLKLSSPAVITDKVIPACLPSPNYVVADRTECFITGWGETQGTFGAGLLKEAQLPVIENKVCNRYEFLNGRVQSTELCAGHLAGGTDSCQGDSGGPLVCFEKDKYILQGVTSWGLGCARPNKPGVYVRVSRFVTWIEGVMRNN
Sequence (P00747 97-580 partner limits assumed): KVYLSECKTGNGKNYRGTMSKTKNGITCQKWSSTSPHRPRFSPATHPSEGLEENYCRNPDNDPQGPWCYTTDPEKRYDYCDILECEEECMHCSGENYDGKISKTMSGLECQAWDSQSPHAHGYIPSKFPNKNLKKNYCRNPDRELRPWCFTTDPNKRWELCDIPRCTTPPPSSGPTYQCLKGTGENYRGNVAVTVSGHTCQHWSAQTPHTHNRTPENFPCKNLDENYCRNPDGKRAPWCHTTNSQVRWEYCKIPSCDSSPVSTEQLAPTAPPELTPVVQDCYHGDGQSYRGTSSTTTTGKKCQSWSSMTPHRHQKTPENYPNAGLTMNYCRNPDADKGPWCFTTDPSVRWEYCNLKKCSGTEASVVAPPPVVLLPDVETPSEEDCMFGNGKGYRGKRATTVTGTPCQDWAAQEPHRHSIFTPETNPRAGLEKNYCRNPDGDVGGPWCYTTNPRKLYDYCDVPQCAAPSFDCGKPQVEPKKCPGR
OUTCOME MEASURE: Ki

{"MOL": "N=C(N)c1ccc(CNC(=O)[C@H](Cc2cccc(CN)c2)NC(=O)[C@@H](Cc2ccc3ccccc3c2)NS(=O)(=O)Cc2ccc(C(=O)O)cc2)cc1", "OBSERVED VALUE": "< 10 nM"}
{"MOL": "N=C(N)c1ccc(CNC(=O)[C@H](CCCc2ccccc2)NC(=O)[C@@H](CCc2ccncc2)NS(=O)(=O)Cc2ccccc2)cc1", "OBSERVED VALUE": "< 10 nM"}

Now turn to the next compound.
[ask] Please give the measured Ki for this compound: N=C(N)c1ccc(CNC(=O)[C@H](Cc2cccc(CN)c2)NC(=O)[C@@H](CCCc2ccc(OC(F)(F)F)cc2)NS(=O)(=O)Cc2ccccc2)cc1
[reply] < 10 nM

====

# pKi measurements, system: Xa (Homo sapiens)
# Sequence (P00742 235-488 limits assumed): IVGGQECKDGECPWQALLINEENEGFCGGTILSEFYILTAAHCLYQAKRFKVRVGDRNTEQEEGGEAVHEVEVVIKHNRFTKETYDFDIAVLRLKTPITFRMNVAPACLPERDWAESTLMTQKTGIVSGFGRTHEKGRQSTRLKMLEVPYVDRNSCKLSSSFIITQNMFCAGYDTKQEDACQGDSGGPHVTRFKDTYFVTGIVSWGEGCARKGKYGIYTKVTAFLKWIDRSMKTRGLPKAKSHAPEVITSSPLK
# Sequence (P00742 41-179 limits assumed): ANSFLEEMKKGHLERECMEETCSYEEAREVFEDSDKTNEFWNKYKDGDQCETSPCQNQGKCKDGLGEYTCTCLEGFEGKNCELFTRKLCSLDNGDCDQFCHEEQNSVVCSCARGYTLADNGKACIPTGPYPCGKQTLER
pKi: −log10 of the molar value.

Consider the reported pKi for these molecules:
{"MOL": "N=C(N)c1ccc(CNC(=O)[C@H](Cc2c[nH]cn2)NC(=O)[C@@H](CCCc2ccccc2)NS(=O)(=O)Cc2cccc(C(=O)O)c2)cc1", "pKi": "> 6.00"}
{"MOL": "N#Cc1cccc(C[C@@H](NS(=O)(=O)Cc2ccccc2)C(=O)N[C@@H](CCc2ccncc2)C(=O)NCc2ccc(C(=N)N)cc2)c1", "pKi": "> 6.00"}

[ask] Please give the measured pKi for this molecule: CC(C)(C)OC[C@@H](NS(=O)(=O)Cc1ccccc1)C(=O)N[C@@H](CCc1cccc(CN)c1)C(=O)NCc1ccc(C(=N)N)cc1
[reply] > 6.00

[ask] Please give the measured pKi for this molecule: N=C(N)c1ccc(CNC(=O)[C@H](CCc2ccc(CN)cc2)NC(=O)[C@@H](CC2CCCCC2)NS(=O)(=O)Cc2ccccc2)cc1
[reply] > 7.00
